The origin of these recorded values is PubChem BioAssay.

Test: modulators of glucocorticoid suppression of NF-kB, cell-based, luciferase, IL-1B stimulus, dexamethasone (AID 624486);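 further: 100% = mean signal of vehicle control wells on the plate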
Details: NF-kB luciferase reporter, IL-1B + dexamethasone, luminescence; actives lie on both sides, concentration not given here
observationType: percent of negative control (+Dex) (%)
A number alone suffices; assume %.

Example entries begin here.
>  <recordSmiles>
NS(=O)(=O)c1ccc(N=Nc2c(O)[nH]c3ccc(C(=O)NCCc4cnc[nH]4)cc23)cc1

>  <observationType>
percent of negative control (+Dex)

>  <valueReported>
85.5

$$$$
>  <recordSmiles>
Cn1cc(C2=C(n3ccc4ccccc43)C(=O)NC2=O)c2ccccc21

>  <observationType>
percent of negative control (+Dex)

>  <valueReported>
95.5

$$$$
>  <recordSmiles>
Cn1cc(C2=C(c3cn(C)c4ncccc34)C(=O)NC2=O)c2ccccc21

>  <observationType>
percent of negative control (+Dex)

>  <valueReported>
100

$$$$
>  <recordSmiles>
NS(=O)(=O)c1ccc(N=Nc2c(O)[nH]c3ccc(C(=O)NCCCn4ccnc4)cc23)cc1

>  <observationType>
percent of negative control (+Dex)

>  <valueReported>
83

$$$$

Note: attention shifts to another entry.
Ask: Answer with the recorded percent of negative control (+Dex) of COc1cccc(C2=C(c3cn(C)c4ccccc34)C(=O)NC2=O)c1 only.
Result: 110
